Target: D-2 dopamine receptors (Rattus norvegicus, UniProt P61169)
Construct: Striatal tissues were excised, pooled and homogenized in 100 volumes (w/v) of ice-cold Tris-HCl buffer; from tissue; host or cells: rat striatum (male Sprague-Dawley), twice-centrifuged membrane homogenate
Sequence (P61169 whole entry): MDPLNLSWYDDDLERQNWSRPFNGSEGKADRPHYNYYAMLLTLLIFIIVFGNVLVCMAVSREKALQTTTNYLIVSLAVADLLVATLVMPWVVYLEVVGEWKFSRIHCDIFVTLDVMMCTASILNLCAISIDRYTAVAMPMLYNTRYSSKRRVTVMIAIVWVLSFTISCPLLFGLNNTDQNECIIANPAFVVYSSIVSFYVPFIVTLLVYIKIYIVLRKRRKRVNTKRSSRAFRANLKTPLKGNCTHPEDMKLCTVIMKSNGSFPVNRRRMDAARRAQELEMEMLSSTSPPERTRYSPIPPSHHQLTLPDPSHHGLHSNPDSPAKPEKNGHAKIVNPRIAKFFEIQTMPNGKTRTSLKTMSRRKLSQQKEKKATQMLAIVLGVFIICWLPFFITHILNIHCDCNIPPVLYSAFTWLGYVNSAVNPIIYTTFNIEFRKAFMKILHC
Experiment: Competition binding using [^125 I]IBZM, rat striatal membranes
Settings: [^125 I]IBZM binding
pKi: −log10 of the molar value.
Below, each entry is listed alongside its reported pKi.
measured.endpoint: pKi

INSERT INTO results (molecular_string, numeric_result) VALUES
  ('CCN1CCC[C@H]1CNC(=O)c1cc2cc(I)ccc2cc1OC', 6.77),
  ('CCN1CCC[C@H]1CNC(=O)c1cc2cc(Br)ccc2cc1OC', 7.09),
  ('CCN1CCC[C@H]1CNC(=O)c1cccc2c1OCC2', 6.87),
  ('CCN1CCC[C@H]1CNC(=O)c1cc2ccccc2cc1OC', 7.52),
  ('CCN1CCC[C@H]1CNC(=O)c1cc(I)cc2c1OCC2', 9.64);

* * *

Below, each entry is listed alongside its reported pKi.
Target: D-2 dopamine receptors (Rattus norvegicus, UniProt P61169)
Construct: Striatal tissues were excised, pooled and homogenized in 100 volumes (w/v) of ice-cold Tris-HCl buffer; from tissue; host or cells: rat striatum (male Sprague-Dawley), twice-centrifuged membrane homogenate
Assay: Competition binding using [^125 I]IBZM, rat striatal membranes
Conditions: [^125 I]IBZM 0.15-0.4 nM, mean ± SEM of three to five determinations
pKi: −log10 of the molar value.
measured.endpoint: pKi

INSERT INTO results (compound, measured_endpoint, numeric_result) VALUES
  ('CCN1CCC[C@H]1CNC(=O)c1cc2ccccc2cc1OC', 'pKi', 7.52),
  ('CCN1CCC[C@H]1CNC(=O)c1cc2cc(I)ccc2cc1OC', 'pKi', 6.77),
  ('CCN1CCC[C@H]1CNC(=O)c1cc(I)cc2c1OCC2', 'pKi', 9.48),
  ('CCN1CCC[C@H]1CNC(=O)c1cccc2c1OCC2', 'pKi', 6.87),
  ('CCN1CCC[C@H]1CNC(=O)c1c(OC)ccc2ccccc12 [Comparative Cpd. B, reference compound]', 'pKi', 6.29),
  ('CCN1CCC[C@H]1CNC(=O)c1cc2cc(Br)ccc2cc1O [Comparative Cpd. A, reference compound]', 'pKi', 6.55),
  ('CCN1CCC[C@H]1CNC(=O)c1cc2cc(Br)ccc2cc1OC', 'pKi', 7.09);

* * *

Target: dopamine D-2 receptor (Rattus norvegicus, UniProt P61169)
Construct: Striatal tissues were excised, pooled and homogenized in 100 volumes (w/v) of ice-cold Tris-HCl buffer
Sequence (P61169 whole entry): as above
Test: Competition binding using [^125 I]IBF, rat striatal membranes
Conditions: [^125 I]IBF 0.15-0.30 nM, mean ± SEM of three to five determinations
pKi: −log10 of the molar value.
Below, each entry is listed alongside its reported pKi.
measured.endpoint: pKi

INSERT INTO measurements (compound, numeric_result) VALUES
  ('CCN1CCC[C@H]1CNC(=O)c1c(OC)ccc(I)c1O', 9.58),
  ('CCN1CCC[C@H]1CNC(=O)c1cc(I)cc2c1OCC2', 10.07),
  ('O=C(c1ccc(F)cc1)C1CCN(CCn2c(=O)[nH]c3ccccc3c2=O)CC1', 6.31),
  ('NC1CCc2cc(O)c(O)cc2C1 (single isomer, unassigned; (+)) [(+) ADTN,6,7]', 7.18);

* * *

Molecular target: dopamine D-2 receptor (Rattus norvegicus)
Construct: Striatal tissues were excised, pooled and homogenized in 100 volumes (w/v) of ice-cold Tris-HCl buffer
Test: Saturation binding of [^125 I]IBF to rat striatal homogenate in vitro
Conditions: rat striatal homogenate in vitro; read-out: Kd, specific binding
measured.endpoint: Kd

INSERT INTO assay_data (molecule, measured_endpoint, result) VALUES
  ('CCN1CCC[C@H]1CNC(=O)c1cc([125I])cc2c1OCC2 [[^125 I]IBF]', 'Kd', '106 pM');
